Each entry below carries its recorded log10 IC50.
- SYSTEM_TESTED: human P2X7 (Homo sapiens (Human))
- PROTOCOL: Ca2+ flux (FLIPR) in 1321N1 cells expressing recombinant human P2X7;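 further: cells loaded with Calcium-4 dye, preincubated with test compound for 30 min, fluorescence change read 180 s after agonist addition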
- Type: cell-based
- CONDITION_DETAILS: 1321N1 cells, recombinant human P2X7, 250 μM BzATP
A value of 2 here means IC50 of 100 in nM, since values are log10.

Some solved entries appear below for comparison.
# COMPOUND, log10 IC50
rows = [
    ("O=C(c1cccc(C(F)(F)F)c1Cl)N1CCc2c(nnn2-c2ccccc2)C1", 0.43),
    ("Cc1cc(-n2nnc3c2CCN(C(=O)c2ccnc(C(F)(F)F)c2Cl)C3C)ncc1F (centres unmarked)", 1.78),
    ("Cc1cc(-n2nnc3c2CCN(C(=O)c2cccc(C(F)(F)F)c2F)C3C)ncn1 (centres unmarked)", 3.99),
]

// recorded log10 IC50 for C[C@@H]1c2nnn(-c3ncccn3)c2CCN1C(=O)c1cccc(C(F)(F)F)c1F (single isomer, unassigned) : 0.23

// recorded log10 IC50 for Cc1cc(-n2nnc3c2CCN(C(=O)c2ccnc(C(F)(F)F)c2F)C3C)ncc1F (centres unmarked) : 1.88

// recorded log10 IC50 for CCC1c2ncn(-c3cnccn3)c2CCN1C(=O)c1cccc(C(F)(F)F)c1Cl (centres unmarked) : 1.91

// recorded log10 IC50 for CC1c2ncn(-c3ccc(F)cn3)c2CCN1C(=O)c1ccc(F)cc1Cl (centres unmarked) : 3.64

---

Each entry below carries its recorded PBMC 10 μM (% control).
- SYSTEM_TESTED: human P2X7 (Homo sapiens (Human), UniProt Q99572)
- Sequence (Q99572 whole entry): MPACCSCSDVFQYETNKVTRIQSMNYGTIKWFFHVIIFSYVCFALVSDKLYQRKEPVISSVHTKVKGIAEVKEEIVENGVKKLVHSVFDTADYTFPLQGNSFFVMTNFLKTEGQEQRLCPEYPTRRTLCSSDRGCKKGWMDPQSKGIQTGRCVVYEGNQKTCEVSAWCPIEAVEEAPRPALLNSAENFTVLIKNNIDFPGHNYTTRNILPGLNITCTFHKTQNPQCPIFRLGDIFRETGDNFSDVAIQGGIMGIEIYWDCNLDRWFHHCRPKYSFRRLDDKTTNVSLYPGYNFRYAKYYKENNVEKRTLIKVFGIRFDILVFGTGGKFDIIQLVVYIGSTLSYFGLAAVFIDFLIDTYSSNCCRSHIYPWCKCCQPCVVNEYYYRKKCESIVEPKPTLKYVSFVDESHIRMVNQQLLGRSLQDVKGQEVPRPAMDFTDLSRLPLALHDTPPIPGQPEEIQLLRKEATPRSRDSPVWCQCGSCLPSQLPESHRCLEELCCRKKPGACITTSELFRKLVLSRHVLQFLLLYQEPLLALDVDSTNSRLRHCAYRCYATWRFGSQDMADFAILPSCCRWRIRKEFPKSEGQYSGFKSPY
- PROTOCOL: P2X7 antagonism in human PBMCs (IL-1β release after LPS + Bz-ATP, ELISA)
- Format: cell-based
- CONDITION_DETAILS: human PBMCs, test compound 10 μM
Numbers only here, please. The scale is % control.

// recorded PBMC 10 μM (% control) for Cc1cc(-n2nnc3c2CCN(C(=O)c2ccnc(C(F)(F)F)c2F)C3C)ncn1 (stereo not drawn) : 64.7

// recorded PBMC 10 μM (% control) for CCOc1cccnc1-n1nnc2c1CCN(C(=O)c1cccc(C(F)(F)F)c1Cl)C2C (stereo not drawn) : −3.2

// recorded PBMC 10 μM (% control) for `O=C(c1cccc(C(F)(F)F)c1Cl)N1CCc2c(nnn2-c2cccc(F)n2)C1` : 1.7

// recorded PBMC 10 μM (% control) for C[C@@H]1c2nnn(-c3cnccn3)c2CCN1C(=O)c1ccc(F)c(Cl)c1Cl (single isomer, unassigned) : 58.0

// recorded PBMC 10 μM (% control) for C[C@H]1Cc2c(nnn2-c2ncc(F)cn2)CN1C(=O)c1ccnc(C(F)(F)F)c1Cl (single isomer, unassigned) : −1.2

// recorded PBMC 10 μM (% control) for `O=C(c1cccc(C(F)(F)F)c1Cl)N1CCc2c(ncn2-c2ccc(F)cn2)C1` : 8.8

// recorded PBMC 10 μM (% control) for `C[C@H]1Cc2c(nnn2-c2ccc(F)cc2)[C@H](C)N1C(=O)c1cccc(C(F)(F)F)c1Cl` : −2.6

---

Each entry below carries its recorded PBMC 10 μM (% control).
- SYSTEM_TESTED: human P2X7 (Homo sapiens (Human))
- PROTOCOL: P2X7 antagonism in human PBMCs (IL-1β release after LPS + Bz-ATP, ELISA)
- Assay type: cell-based
- CONDITION_DETAILS: 10 μM test compound, human PBMCs, LPS + Bz-ATP
Don't forget the unit after the number, please.

# COMPOUND, DATA_VALUE
data = [
    ("CC(C)n1ccc(-n2nnc3c2C[C@H](C)N(C(=O)c2cccc(C(F)(F)F)c2Cl)C3)n1", "−12.6 % control"),
    ("CCn1nccc1-n1nnc2c1C[C@H](C)N(C(=O)c1cccc(C(F)(F)F)c1Cl)C2", "−3.6 % control"),
    ("CCn1ccc(-n2nnc3c2CCN(C(=O)c2cccc(C(F)(F)F)c2Cl)[C@H]3C)n1", "−0.4 % control"),
    ("CC1c2n[nH]c(-c3cnccn3)c2CCN1C(=O)c1cccc(C(F)(F)F)c1Cl (centres unmarked)", "−10.8 % control"),
    ("C[C@H]1Cc2c(nnn2-c2ncc(O)cn2)CN1C(=O)c1cccc(C(F)(F)F)c1F", "1.4 % control"),
]

// recorded PBMC 10 μM (% control) for `CCn1ccc(-n2nnc3c2CCN(C(=O)c2ccnc(C(F)(F)F)c2Cl)[C@H]3C)n1` : 69.6 % control

// recorded PBMC 10 μM (% control) for CC1c2n[nH]c(-c3ccccn3)c2CCN1C(=O)c1cccc(C(F)(F)F)c1Cl (centres unmarked) : 0.3 % control

// recorded PBMC 10 μM (% control) for `C[C@H]1Cc2c(nnn2-c2ccsc2)CN1C(=O)c1cccc(C(F)(F)F)c1Cl` : 0.0 % control
